Listed here: items and their measured shrunken log2 fold change.
# System: Escherichia coli TOP10
# method: shrunken log2 fold change of peptide-encoding DNA abundance (4.5 h post-induction vs induction); higher = less antimicrobial activity (less host growth inhibition)
# measurement setup: time post-induction: 4.5 h; library: site-saturation at positions 5, 18, 19, 20
Enter the number alone.

RRIRIRPPRLPRPRPRPVTRPRP; 0.0796

Exercise: What value of shrunken log2 fold change has been reported for the following sequence? "RRIRGRPPRLPRPRPRPMEKPRP"
Solution: 0.0535

Exercise: Consider the sequence "RRIRCRPPRLPRPRPRPITDPRP" and give its measured shrunken log2 fold change.
Solution: -0.442

Exercise: I am curious: what shrunken log2 fold change value has been reported for "RRIRGRPPRLPRPRPRPTAFPRP" ?
Solution: 1.19

Exercise: Please report the recorded shrunken log2 fold change for "RRIRVRPPRLPRPRPRPWHGPRP" .
Solution: -0.121

Exercise: Param item = "RRIRLRPPRLPRPRPRPGDRPRP" ; retrieve measured shrunken log2 fold change.
Solution: -0.0244

* * *

# Test system: Escherichia coli TOP10
# method: shrunken log2 fold change of peptide-encoding DNA abundance (4.5 h post-induction vs induction); higher = less antimicrobial activity (less host growth inhibition)
# measurement setup: time post-induction: 4.5 h; library: site-saturation at positions 5, 18, 19, 20
Classify by measured shrunken log2 fold change: Yes if it is equal to or exceeds 0.07, No if it is smaller.

Consider the worked cases shown below.
RRIRGRPPRLPRPRPRPCNAPRP; Yes
RRIRFRPPRLPRPRPRPYGNPRP; No
RRIRPRPPRLPRPRPRPGYNPRP; No
RRIRERPPRLPRPRPRPTASPRP; No
RRIRKRPPRLPRPRPRPSIGPRP; No
RRIRDRPPRLPRPRPRPKPDPRP; Yes
RRIRGRPPRLPRPRPRPDSIPRP; Yes

Continue with the next sequence.
Exercise: Decide: is the reported value of shrunken log2 fold change for "RRIRQRPPRLPRPRPRPTVCPRP" equal to or greater than 0.07?
Solution: No

* * *

# Test system: Escherichia coli TOP10;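 further: peptides expressed intracellularly from a pBAD plasmid library in pooled LB shake-flask culture, induced with 0.3% L-arabinose, DNA abundance read by NGS, three biological replicates, DESeq2 with apeglm shrinkage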
# method: shrunken log2 fold change of peptide-encoding DNA abundance (4.5 h post-induction vs induction); higher = less antimicrobial activity (less host growth inhibition)
# measurement setup: time post-induction: 4.5 h; library: site-saturation at positions 5, 18, 19, 20
Categorized via shrunken log2 fold change: range A = under -0.02, range B = from -0.02 up to 0.2, range C = 0.2 and over

Look over these answered cases.
RRIRCRPPRLPRPRPRPDWSPRP; range B
RRIRVRPPRLPRPRPRPHCDPRP; range A
RRIRLRPPRLPRPRPRPRWQPRP; range C
RRIRYRPPRLPRPRPRPANGPRP; range A
RRIRDRPPRLPRPRPRPTNDPRP; range B

Exercise: Band of "RRIRQRPPRLPRPRPRPRRMPRP" ?
Solution: range C

Exercise: Input "RRIRRRPPRLPRPRPRPEDLPRP" ; output its category
Solution: range B

Exercise: Returns: class label. Input: "RRIRHRPPRLPRPRPRPWTLPRP"
Solution: range B

Exercise: Which band does "RRIRERPPRLPRPRPRPDHHPRP" fall in?
Solution: range A

Exercise: Given "RRIRHRPPRLPRPRPRPAFRPRP" , name the class its shrunken log2 fold change places it in.
Solution: range B

Exercise: Input "RRIRPRPPRLPRPRPRPRSLPRP" ; output its category
Solution: range B

Exercise: State the class of the sequence shown: "RRIRPRPPRLPRPRPRPNGPPRP"
Solution: range A

Exercise: Looking at "RRIRRRPPRLPRPRPRPALSPRP" , which class would you pick?
Solution: range C

Exercise: Which shrunken log2 fold change category applies to "RRIRIRPPRLPRPRPRPRGSPRP" here?
Solution: range A

Exercise: Entry "RRIRDRPPRLPRPRPRPLHNPRP" belongs to which category?
Solution: range A

Exercise: Where would "RRIRRRPPRLPRPRPRPDCCPRP" land among the classes by reported shrunken log2 fold change?
Solution: range B

Exercise: Class for "RRIRCRPPRLPRPRPRPLKPPRP" ?
Solution: range A

Exercise: Consider "RRIRCRPPRLPRPRPRPLLWPRP" . To which shrunken log2 fold change class does it belong?
Solution: range C

Exercise: Returns: class label. Input: "RRIRKRPPRLPRPRPRPMCEPRP"
Solution: range B
